# testSystem: T1, calcitonin receptor (hCTR) (human, UniProt P30988 25-474)
# T1 sequence (looked up): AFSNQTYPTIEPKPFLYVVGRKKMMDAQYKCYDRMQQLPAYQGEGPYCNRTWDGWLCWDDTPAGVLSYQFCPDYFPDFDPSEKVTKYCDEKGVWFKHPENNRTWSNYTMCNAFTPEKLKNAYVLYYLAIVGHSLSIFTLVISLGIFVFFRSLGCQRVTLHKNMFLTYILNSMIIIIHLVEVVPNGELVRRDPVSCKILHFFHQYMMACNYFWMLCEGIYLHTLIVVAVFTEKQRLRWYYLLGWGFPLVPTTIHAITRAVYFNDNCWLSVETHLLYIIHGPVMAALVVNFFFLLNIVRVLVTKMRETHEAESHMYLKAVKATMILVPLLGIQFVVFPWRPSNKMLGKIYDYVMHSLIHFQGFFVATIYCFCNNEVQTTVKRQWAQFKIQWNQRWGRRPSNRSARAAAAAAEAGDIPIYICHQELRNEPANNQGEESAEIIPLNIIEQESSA
# protocolDetails: cell-based or functional assay
Numbered stars: 1 amine (or outer) side, 2 acyl side, 3 side chain; on linkers, the order of the positions; unused ones are H or OH. * marks the point of attachment. C18 diacid = O=C(O)CCCCCCCCCCCCCCCCC(=O)*; C16 diacid = O=C(O)CCCCCCCCCCCCCCC(=O)*; γGlu = O=C(O)[C@H](CCC(=O)[*:2])N[*:1]
Reported EC50, CRE-luciferase reporter in calcitonin receptor/CRE-luc CHO cells, 24 h values follow for various binders
The reply should contain only the number, in nM.

Consider the following illustrative entries.
{C18 diacid-γGlu}-ASQLSTAVLGRLSDELHRLQDYPRTDVGSGSP-NH2 (ends and bridges not checked) [M8] | 0.165
{C16 diacid-γGlu}-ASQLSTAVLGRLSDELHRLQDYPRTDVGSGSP-NH2 (ends and bridges not checked) [M9] | 0.12
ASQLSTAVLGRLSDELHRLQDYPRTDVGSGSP (N terminus: C18 diacid + Trx) [M15] | 0.469

Could you now consider this next binder?
INPUT: Entry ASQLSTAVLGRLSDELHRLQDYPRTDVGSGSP (not fully specified; N terminus: C20 diacid + Inp) [M16] : reported EC50, CRE-luciferase reporter in calcitonin receptor/CRE-luc CHO cells, 24 h = ?
OUTPUT: 0.376
